Attribution: patent US20260327221A1

tested.target: hcGAS (Homo sapiens, UniProt Q8N884)
Sequence (Q8N884 whole entry): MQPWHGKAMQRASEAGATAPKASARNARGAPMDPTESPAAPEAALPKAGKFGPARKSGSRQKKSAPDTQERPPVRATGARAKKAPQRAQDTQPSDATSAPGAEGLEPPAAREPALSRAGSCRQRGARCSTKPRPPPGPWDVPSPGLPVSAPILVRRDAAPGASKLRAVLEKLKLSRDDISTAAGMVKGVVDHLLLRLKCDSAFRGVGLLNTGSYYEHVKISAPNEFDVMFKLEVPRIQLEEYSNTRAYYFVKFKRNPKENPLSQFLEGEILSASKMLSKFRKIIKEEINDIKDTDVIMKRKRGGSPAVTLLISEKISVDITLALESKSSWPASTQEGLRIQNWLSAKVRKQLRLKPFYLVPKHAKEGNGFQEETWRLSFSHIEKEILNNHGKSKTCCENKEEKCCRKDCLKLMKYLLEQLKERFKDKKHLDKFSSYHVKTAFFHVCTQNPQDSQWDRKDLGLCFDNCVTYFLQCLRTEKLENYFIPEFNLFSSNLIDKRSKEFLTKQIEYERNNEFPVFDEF
experiment.notes: hcGAS LCMS assay (direct measurement of cGAMP production by LC/MS)
Type: biochemical
recorded.conditions: 4 h incubation with enzyme and substrates; cGAMP production by LC/MS; class symbols; read-out: hcGAS LCMS IC50
observable: IC50

Below are worked cases with known answers.
>>> df
                                   compound  recorded_value
0  COc1cccc(OC)c1-c1cc(C(=O)Nc2nnc(-n3nccc3N)s2)oc(=O)c1OCCO        < 0.5 nM
1  COCC(C)(C)COc1c(-c2ncccc2OC)cc(C(=O)Nc2nnc(-n3nccc3N)s2)oc1=O       1 to 5 nM
2  COc1cccc(OC)c1-c1cc(C(=O)Nc2nnc(-n3nccc3N)s2)oc(=O)c1OCCN1CCSC(CO)C1 (stereo not shown) [100A*/100B*]       1 to 5 nM
3  COc1cccnc1-c1cc(C(=O)Nc2nnc(-n3nccc3N)s2)oc(=O)c1O[C@H]1CC[C@@H](O)C1 (single isomer, unassigned) [111B*]     0.5 to 1 nM
4  COc1cccc(OC)c1-c1cc(C(=O)Nc2nnc(-n3nccc3N)s2)oc(=O)c1OCCN1CCOCC1       1 to 5 nM
5  COc1cccc(OC)c1-c1cc(C(=O)Nc2nnc(-n3nccc3N)s2)oc(=O)c1OCCN1CCSCC1=O     0.5 to 1 nM

Let's switch to this compound now.
Which IC50 is listed for COc1cccc(OC)c1-c1cc(C(=O)Nc2nnc(-n3nccc3N)s2)oc(=O)c1OC1CC(O)C1 (single isomer, unassigned) [Compound 57A] ? 0.5 to 1 nM

----------
List of IC50 values.
tested.target: hcGAS (Homo sapiens, UniProt Q8N884)
experiment.notes: hcGAS LCMS assay (direct measurement of cGAMP production by LC/MS)
Format: biochemical
recorded.conditions: 4 h incubation with enzyme and substrates; cGAMP production by LC/MS; class symbols; read-out: hcGAS LCMS IC50

Below are worked cases with known answers.
>>> df
                                   compound  recorded_value
0  COCC(COC)Oc1c(-c2c(OC)cccc2OC)cc(C(=O)Nc2nnc(-n3nccc3N)s2)oc1=O       1 to 5 nM
1  COc1cccc(OC)c1-c1cc(C(=O)Nc2nnc(-n3nccc3N)s2)oc(=O)c1OCCN1CCSCC1CO (stereo not drawn) [96A*/96B*]       1 to 5 nM
2  COc1cccc(OC)c1-c1cc(C(=O)Nc2nnc(-n3nccc3N)s2)oc(=O)c1O[C@@H]1CCC[C@H]1O (single isomer, unassigned) [71B*]     0.5 to 1 nM

Let's switch to this compound now.
Notebook entry, hcGAS (Homo sapiens, UniProt Q8N884) assay: IC50 of COCCOc1c(-c2c(C)cccc2C#N)cc(C(=O)Nc2nnc(-n3nccc3N)s2)oc1=O (single isomer, unassigned) [Compound 24B*] = ? < 0.5 nM

----------
List of pIC50 values.
tested.target: hcGAS (Homo sapiens)
experiment.notes: hcGAS LCMS assay (direct measurement of cGAMP production by LC/MS)
Format: biochemical
recorded.conditions: 4 h incubation with enzyme and substrates; cGAMP production by LC/MS; class symbols; read-out: hcGAS LCMS IC50
pIC50: −log10 of the molar value.

>>> df
                                   molecule  recorded_value
0  COc1c(-c2ccccc2P(C)(C)=O)cc(C(=O)Nc2nnc(-n3nccc3C)s2)oc1=O    7.22 to 7.70
1  COc1cccc(Cl)c1-c1cc(C(=O)Nc2nnc(-n3nccc3N)s2)oc(=O)c1OCCO (single isomer, unassigned) [Compound 34B*]          > 9.30
2  COc1cccc(OC)c1-c1cc(C(=O)Nc2nnc(-n3nccc3N)s2)oc(=O)c1OCC1(OC)CCC(O)CC1 (stereo not shown) [99A*/99B*]    8.30 to 9.00

Let's switch to this molecule now.
Which pIC50 is listed for `COCCOc1c(-c2ncc(OC)cc2OC)cc(C(=O)Nc2nnc(-n3nccc3N)s2)oc1=O` ? 8.30 to 9.00

----------
List of IC50 values.
tested.target: UniProtKB Q8N884
experiment.notes: hcGAS LCMS assay (direct measurement of cGAMP production by LC/MS)
Format: biochemical
recorded.conditions: hcGAS 0.5 nM; ATP 100 μM; GTP 100 μM; dsDNA 25 nM; pH 7.4; 4 h incubation; read-out: hcGAS inhibition IC50 (activity class, Table D)

Below are worked cases with known answers.
In [3]: df
Out[3]:
                                   compound  observable  recorded_value
0  COc1cccc(OC)c1-c1cc(C(=O)Nc2nnc(-n3nccc3N)s2)oc(=O)c1OCCN1CCSCC1        IC50        < 0.5 nM
1  COCCOc1c(-c2c(O)cccc2Cl)cc(C(=O)Nc2nnc(-n3nccc3N)s2)oc1=O        IC50        < 0.5 nM
2  COc1c(-c2ccccc2C#N)cc(C(=O)Nc2nnc(-n3nccc3C)s2)oc1=O        IC50     0.5 to 1 nM

Notebook entry, UniProtKB Q8N884 assay: IC50 of COCCOc1c(-c2c(C)cccc2C#N)cc(C(=O)Nc2nnc(-n3nccc3N)s2)oc1=O (single isomer, unassigned) [Compound 24A*] = ? < 0.5 nM

Would you kindly repeat that for `COCCOc1c(-c2c(Cl)cccc2C#N)cc(C(=O)Nc2nnc(-n3nccc3N)s2)oc1=O` ? < 0.5 nM

----------
tested.target: UniProt:Q8N884
experiment.notes: hcGAS LCMS assay (direct measurement of cGAMP production by LC/MS)
Type: biochemical
recorded.conditions: 4 h incubation with enzyme and substrates; cGAMP production by LC/MS; class symbols; read-out: hcGAS LCMS IC50
observable: IC50

>>> df
                                   compound   tested_target  recorded_value
0  COCCOc1c(-c2c(CC#N)cccc2OC)cc(C(=O)Nc2nnc(-n3nccc3N)s2)oc1=O [Compound 32]  UniProt:Q8N884       1 to 5 nM
1  COCCOc1c(-c2ncccc2OC2CC2)cc(C(=O)Nc2nnc(-n3nccc3N)s2)oc1=O [Compound 70]  UniProt:Q8N884     0.5 to 1 nM
2  COc1cccc(OC)c1-c1cc(C(=O)Nc2nnc(-n3nccc3N)s2)oc(=O)c1OCCOC1CC(O)C1 (stereo not shown) [102A*]  UniProt:Q8N884     0.5 to 1 nM

Which IC50 is listed for COc1cccc(OC)c1-c1cc(C(=O)Nc2nnc(-n3nccc3N)s2)oc(=O)c1O[C@H](C)CO (single isomer, unassigned) [Compound 55B*] ? 0.5 to 1 nM

Would you kindly repeat that for COc1cccc(OC)c1-c1cc(C(=O)Nc2nnc(-n3nccc3N)s2)oc(=O)c1OCC(=O)N1CCSCC1 [Compound 90] ? < 0.5 nM

Would you kindly repeat that for COCCOc1c(-c2ncccc2C#N)cc(C(=O)Nc2nnc(-n3nccc3C)s2)oc1=O [Compound 7] ? 1 to 5 nM

Would you kindly repeat that for COCCOc1c(-c2c(C)cccc2OC)cc(C(=O)Nc2nnc(-n3nccc3N)s2)oc1=O [Compound 11] ? 0.5 to 1 nM

----------
List of IC50 values.
tested.target: hcGAS (Homo sapiens, UniProt Q8N884)
experiment.notes: hcGAS LCMS assay (direct measurement of cGAMP production by LC/MS)
Assay type: biochemical
recorded.conditions: 4 h incubation with enzyme and substrates; cGAMP production by LC/MS; class symbols; read-out: hcGAS LCMS IC50

Below are worked cases with known answers.
>>> df
                                   compound  observable  recorded_value
0  COCCOc1c(-c2c(C#N)cccc2C#N)cc(C(=O)Nc2nnc(-n3nccc3N)s2)oc1=O        IC50     0.5 to 1 nM
1  COC[C@H](O)COc1c(-c2c(OC)cccc2OC)cc(C(=O)Nc2nnc(-n3nccc3N)s2)oc1=O [Compound 63A*]        IC50     0.5 to 1 nM

Which IC50 is listed for COc1cccc(OC)c1-c1cc(C(=O)Nc2nnc(-n3nccc3N)s2)oc(=O)c1O[C@H]1CC[C@@H](O)CC1 [Compound 108B] ? 1 to 5 nM

Would you kindly repeat that for COc1cccc(OC)c1-c1cc(C(=O)Nc2nnc(-n3nccc3N)s2)oc(=O)c1O[C@H](CO)C1CC1 [106A*] ? 1 to 5 nM

Would you kindly repeat that for COc1cccc(OC)c1-c1cc(C(=O)Nc2nnc(-n3nccc3N)s2)oc(=O)c1OC[C@H]1COCCO1 (single isomer, unassigned) [Compound 43B] ? 0.5 to 1 nM
